assay: inhibitors of mutant huntingtin aggregation, primary screen, imaging, exon1htt(103Q)mCFP cells, high-content imaging (AID 483); conditions: exon1htt(103Q)mCFP cell line, aggregate imaging, at 2 µM; hits give high values;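 note: compound exposure lasted 3 days before fixation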
measure-name: inhibition of aggregation (%)

| molecule | numeric-readout |
| --- | --- |
| Cc1cccc(NC(=O)CSc2nnc(-c3ccccc3C)o2)c1 | -0.2 |
| CCc1ccc(CN(C)CCc2ccccn2)cc1 | 7.2 |
| Nc1cc(=O)[nH]c(SCC(=O)Nc2ccc(Br)cc2)n1 | -2.2 |
| O=C1NC(Nc2ccccn2)(C(F)(F)F)C(=O)N1c1ccc(F)cc1 (stereo unspecified) | -9.8 |
| CCCS(=O)(=O)Nc1c(C(=O)O)[nH]c2ccccc12 | -26.1 |
| COc1ccc(NC(=O)CSc2c(C)nn(-c3nnc(C)c(=O)[nH]3)c2C)cc1 | -12.6 |
| CCCCOCCCNC(=O)c1cccs1 | -4.3 |
| Cn1cccc1Cc1nnc(SCC(=O)Nc2ccc(F)cc2)n1-c1ccc(F)cc1 | -2.2 |
| Cn1c(=O)[nH]c(=O)c2c1nc(N1CCNCC1)n2CCOc1ccccc1 | 2.5 |
| CCCn1c(C)cc(C(=O)COc2ncnc3sccc23)c1C | 11.2 |
| CS(=O)(=O)N1CCN(c2ccccc2NC(=O)c2ccc(-c3ccc(Cl)cc3Cl)o2)CC1 | 32.9 |
| Cc1nc2ccc(S(=O)(=O)NCC(=O)N3CCc4ccccc4C3)cc2s1 | 1.5 |
| CCCC(=O)Nc1nnc(CC(=O)OCC)s1 | 11 |
| CCOc1ccccc1NC(=O)NC1CCN(CC(=O)Nc2ccc3c(c2)OCCO3)CC1 | 2 |
| COc1ccc(S(=O)(=O)Nc2cc(C)on2)cc1OC | -7.8 |
| OC1(c2cccc(C(F)(F)F)c2)CCN(c2ccc(-c3ccccc3)nn2)CC1 | -13.4 |
| COc1cc(-c2noc(-c3ccccc3C(=O)NCc3ccco3)n2)cc(OC)c1OC | -4 |
| Cn1c(=O)c2ncn(CC(=O)NCCOc3ccc(C(C)(C)C)cc3)c2n(C)c1=O | -9.8 |
| CCCn1c(O)c(CN2CCCC(C)C2)c(C)c(C#N)c1=O (stereo unspecified) | 2.6 |
| O=C(C1CCC(N2C(=O)C3CC=CCC3C2=O)CC1)N1CCCCC1 (stereo unspecified) | 7.8 |
| CSc1cccc(NC(=O)C2CCN(S(=O)(=O)c3ccc(F)cc3)CC2)c1 | 10.8 |
| Cc1cc(C)nc(Sc2ccc3nnc(C(F)(F)C(F)(F)C(F)(F)F)n3n2)n1 | -9.9 |
| CCCc1cc(C(=O)Nc2ccccc2SC)no1 | -12.6 |
| Cc1nc2ccc(NC(=O)NCc3ccco3)cc2s1 | 21.2 |
| COc1ccc(-c2cc3n(n2)CCc2nc4ccccc4n2-3)cc1 | 30.7 |
| COc1ccc(CN(C(=O)c2oc3ccccc3c2C)C2CCS(=O)(=O)C2)cc1 (stereo unspecified) | 7.1 |
| O=C(C1CCN(c2nnc(-n3cccc3)s2)CC1)N1CCOCC1 | 6.4 |
| Cc1cc(C)c(NC(=O)CSc2nnc(-c3ccncc3)n2Cc2ccco2)c(C)c1 | -19.2 |
| Cc1cc(NC(=O)c2cccc(S(=O)(=O)N3CC(c4ccccc4)CC3=O)c2)no1 (stereo unspecified) | 2.3 |
| O=C(Cn1ncc2c1-c1ccccc1OC2)N1CCc2ccccc21 | 10.6 |
| Cn1c(=O)c2c(nc(CN3CCCCC3)n2CCc2ccccc2)n(C)c1=O | -29.9 |
| CNC(=O)c1nnn(Cc2ccccc2)c1NC(C)=O | -9.5 |
| CC(C)Nc1ncnc2c1cnn2-c1ccccc1 | -56.3 |
| Cc1cc(=O)n(C)c(=O)n1CCCNc1ccccc1 | -3 |
| Cc1ccc(CCSCC(=O)O)cn1 | 1.9 |
| Cc1ccc(-c2nc3ccccc3[nH]2)s1 | -2.5 |
| CC(=O)Nc1ccc(OCC(O)CN2CCN(c3cccc(Cl)c3)CC2)cc1 (stereo unspecified) | -19.8 |
| CCOC(=O)N1CCC(n2c(=S)[nH]c3cc(OC)c(OC)cc3c2=O)CC1 | -23.4 |
| O=C(C1CCN(C2CC(=O)N(c3ccc(F)cc3)C2=O)CC1)N1CCOCC1 (stereo unspecified) | 19.1 |
| O=C(Nc1ccccn1)N1CCOCC1 | 10.6 |
| CCOc1cc(C(=O)Nc2c3c(nn2C(C)(C)C)CS(=O)C3)cc(OCC)c1OCC (stereo unspecified) | -15.3 |
| Cn1c(SCC(=O)N2CCOCC2)nnc1-c1cnccn1 | -11.1 |
| O=C(NCc1ccccc1)C1CCCN1S(=O)(=O)c1cccc2cccnc12 (stereo unspecified) | -7.9 |
| CC1Cc2ccccc2N1S(=O)(=O)c1ccc2c(c1)n(C)c(=O)c(=O)n2C (stereo unspecified) | -25.5 |
| CCOC(=O)CSc1nnc(NCC(=O)OC(C)C)c(=O)[nH]1 | 3.7 |
| Cc1ccc(-c2noc(CCC(=O)NCCc3ccccc3Cl)n2)cc1 | 19.9 |
